- tested-on: human Nav1.8 (Homo sapiens (Human))
- Sequence (Q9Y5Y9 whole entry): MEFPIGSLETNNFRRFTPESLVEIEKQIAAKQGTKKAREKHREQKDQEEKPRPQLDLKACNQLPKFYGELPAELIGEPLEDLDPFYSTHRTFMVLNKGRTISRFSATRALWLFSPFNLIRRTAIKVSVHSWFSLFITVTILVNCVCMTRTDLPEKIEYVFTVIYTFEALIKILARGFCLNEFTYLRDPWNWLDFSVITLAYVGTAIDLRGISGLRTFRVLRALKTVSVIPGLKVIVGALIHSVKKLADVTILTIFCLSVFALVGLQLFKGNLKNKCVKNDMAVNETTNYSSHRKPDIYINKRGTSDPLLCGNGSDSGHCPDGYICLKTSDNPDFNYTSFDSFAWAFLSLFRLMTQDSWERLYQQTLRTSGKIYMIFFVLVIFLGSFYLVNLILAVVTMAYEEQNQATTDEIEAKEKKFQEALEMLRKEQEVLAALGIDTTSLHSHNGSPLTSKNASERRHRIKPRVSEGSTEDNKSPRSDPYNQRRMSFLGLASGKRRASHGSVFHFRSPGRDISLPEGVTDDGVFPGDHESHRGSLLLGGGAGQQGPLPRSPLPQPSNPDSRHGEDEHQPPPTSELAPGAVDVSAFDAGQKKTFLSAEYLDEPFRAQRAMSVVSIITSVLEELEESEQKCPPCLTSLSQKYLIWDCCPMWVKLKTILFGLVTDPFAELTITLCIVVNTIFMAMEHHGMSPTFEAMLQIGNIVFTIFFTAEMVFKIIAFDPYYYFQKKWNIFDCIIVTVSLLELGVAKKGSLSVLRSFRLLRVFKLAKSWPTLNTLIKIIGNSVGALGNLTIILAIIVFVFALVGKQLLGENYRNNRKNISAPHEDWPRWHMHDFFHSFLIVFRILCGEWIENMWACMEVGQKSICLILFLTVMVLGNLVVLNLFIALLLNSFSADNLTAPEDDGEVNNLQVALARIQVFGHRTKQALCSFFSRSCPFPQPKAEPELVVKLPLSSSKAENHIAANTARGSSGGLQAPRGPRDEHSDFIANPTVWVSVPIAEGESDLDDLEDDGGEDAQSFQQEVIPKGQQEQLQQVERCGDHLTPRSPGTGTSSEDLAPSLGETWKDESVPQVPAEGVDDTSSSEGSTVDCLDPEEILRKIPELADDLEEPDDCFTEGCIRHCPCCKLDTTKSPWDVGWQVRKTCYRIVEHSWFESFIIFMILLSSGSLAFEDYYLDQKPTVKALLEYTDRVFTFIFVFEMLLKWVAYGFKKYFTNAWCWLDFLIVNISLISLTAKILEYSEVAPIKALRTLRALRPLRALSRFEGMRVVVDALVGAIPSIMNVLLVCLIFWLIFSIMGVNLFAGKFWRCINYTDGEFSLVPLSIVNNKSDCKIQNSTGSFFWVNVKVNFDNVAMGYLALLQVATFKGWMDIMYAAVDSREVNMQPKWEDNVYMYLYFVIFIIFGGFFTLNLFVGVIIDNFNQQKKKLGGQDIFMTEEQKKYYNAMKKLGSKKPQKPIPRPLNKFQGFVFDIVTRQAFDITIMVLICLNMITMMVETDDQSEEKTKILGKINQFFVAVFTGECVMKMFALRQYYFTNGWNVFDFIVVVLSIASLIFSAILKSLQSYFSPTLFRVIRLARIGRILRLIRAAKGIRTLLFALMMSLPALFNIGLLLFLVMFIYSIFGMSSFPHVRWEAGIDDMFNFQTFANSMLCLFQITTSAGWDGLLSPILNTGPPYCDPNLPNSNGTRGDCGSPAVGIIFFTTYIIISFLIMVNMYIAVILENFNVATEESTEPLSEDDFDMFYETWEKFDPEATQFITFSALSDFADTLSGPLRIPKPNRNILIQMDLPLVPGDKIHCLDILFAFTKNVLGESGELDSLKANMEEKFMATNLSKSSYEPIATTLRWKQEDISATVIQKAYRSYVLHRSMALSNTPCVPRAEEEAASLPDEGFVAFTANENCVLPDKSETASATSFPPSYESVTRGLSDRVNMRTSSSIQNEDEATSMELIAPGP
- assay-name: Nav1.8 Qube automated patch-clamp assay
- details: Nav1.8 Qube Assay; human Nav1.8 channels stably expressed in HEK 293 cells
- Protocol: Qube® Assay Experimental Procedure Compounds were tested on human Nav1.8 and Nav1.5 channels stably expressed in human embryo kidney (HEK) 293 cells. […] For all Qube® experiments offline analysis was used to determine percent inhibition as a function of drug concentration. IC50 values were determined by fitting to the Hill equation.
Criterion: IC50 strictly less than 50 nM. Met: 1.0. Not met: 0.0.

Here are 8 compounds together with their reported answers.
compound	discrete-label
NC(=O)c1cccc(NC(=O)c2ccc(C(F)(F)F)nc2N2CCC3(CC2)CC3)c1	0.0
NS(=O)(=O)c1cccc(NC(=O)c2cc(C(F)(F)F)cnc2N2CCCCCCC2)c1	1.0
CC(C)(C)c1nc(N2CCCCC2)c(C(=O)Nc2cccc(S(N)(=O)=O)c2)cc1Cl	0.0
CS(=O)(=O)c1cccc(NC(=O)c2ccc(C(F)(F)F)nc2N2CCCCCC2)c1	0.0
Cc1nc(N2CCCCCC2)c(C(=O)Nc2cccc(S(N)(=O)=O)c2)cc1C#N	1.0
Cc1cc(C)c(C(=O)Nc2cccc(S(N)(=O)=O)c2)c(N2CCCCCC2)n1	1.0
COC1CCN(c2ncc(C(F)(F)F)cc2C(=O)Nc2cccc(S(N)(=O)=O)c2)CC1	0.0
NS(=O)(=O)c1cccc(NC(=O)c2cc(C(F)(F)F)cnc2N2CCC(F)C2)c1 (stereo not shown)	0.0

Hello, is IC50 of the following compound strictly smaller than 50 nM? CC12CCN(c3ncc(C(F)(F)F)cc3C(=O)Nc3cccc(S(N)(=O)=O)c3)CC1C2(F)F (single isomer, unassigned) [Example 129]
0.0

Lab note: IC50 threshold 50 nM. Does this compound come in strictly under it? "NS(=O)(=O)c1cccc(NC(=O)c2cc(C(F)(F)F)cnc2N2CCC(F)(F)CC2)c1"
1.0

# check: IC50 < 50 nM for CN1C2CCC1CN(c1ncc(C(F)(F)F)cc1C(=O)Nc1cccc(S(N)(=O)=O)c1)C2 (racemic)
0.0

A record lists "COc1ccc(C(=O)Nc2cccc(S(C)(=O)=O)c2)c(N2CCCC(F)(F)CC2)n1" . Is its IC50 below 50 nM?
1.0

====

- tested-on: human Nav1.8 (Homo sapiens (Human))
- assay-name: Nav1.8 Qube automated patch-clamp assay
- details: Nav1.8 Qube Assay; human Nav1.8 channels stably expressed in HEK 293 cells
Catalogue of IC50 values
Please state the figure in nM; there is no need to write the unit.

compound	IC50, nM
NS(=O)(=O)c1cccc(NC(=O)c2cc(F)c(Cl)nc2N2CCCCCC2)c1 [Example 92]	31
NS(=O)(=O)c1cc(NC(=O)c2cc(C(F)(F)F)cnc2N2CCC(F)(F)CC2)cc(F)c1F [Example 171]	137
NS(=O)(=O)c1cccc(NC(=O)c2cc(OC(F)F)cnc2N2CCCC(F)(F)CC2)c1 [Example 172]	7.5
O=C(Nc1cccc(S(=O)(=O)C2CCCC2)c1)c1cc(C(F)(F)F)cnc1N1CCCCCC1 [Example 120]	3020
NS(=O)(=O)c1cccc(NC(=O)c2cc(C(F)(F)F)cnc2N2CCC(F)(F)C2)c1 [Example 60]	737

Bench note, human Nav1.8 (Homo sapiens (Human)): NS(=O)(=O)c1cccc(NC(=O)c2cc(C(F)(F)F)cnc2N2CCO[C@H](C(F)(F)F)C2)c1 [Example 140] , IC50 reads 83

For COC(=O)C1CCCN(c2ncc(C(F)(F)F)cc2C(=O)Nc2cccc(S(N)(=O)=O)c2)CC1 (stereo not shown) [Example 48] on human Nav1.8 (Homo sapiens (Human)), measured IC50 was 161

Simply: O=C(Nc1ccc2c(c1)S(=O)(=O)C=C2)c1cc(C(F)(F)F)cnc1N1CCCCCC1 [Example 118] , human Nav1.8 (Homo sapiens (Human)), IC50 = 2280
